system: SN12C; test: NCI tumour cell line growth inhibition, 48 h
Activity calls are given as the source filed them. Rule as the data show it: active = GI50 up to about 1.1 µM and inactive = higher.
Please provide measured GI50 for the entries that follow.

Qu. Entry under review: Cc1oncc1/N=C1\C=C(O)C(=O)c2ccccc21 . Reported GI50?
Ans. 5.73 µM (inactive)

Qu. Entry under review: C=C1C(=O)O[C@H]2[C@@H](O)[C@H](C)CCC[C@]3(C)O[C@H]3CC[C@@]3(C)O[C@@H]3C[C@@H]12 . Reported GI50?
Ans. 5.74 µM (inactive)

Qu. Entry under review: COC(=O)/C=C1/CCC(C(=O)OC)N1 (centres undefined) . Reported GI50?
Ans. > 100 µM (inactive)

Qu. Entry under review: CCOC(=O)C(C(=O)OCC)=c1sc(=C(C(=O)OCC)C(=O)OCC)s1 . Reported GI50?
Ans. > 100 µM (inactive)

Qu. Entry under review: CCCCC[C@@H]1OC(=O)[C@@]2(CC3c4ccccc4C2c2ccccc23)[C@H]1C(=O)OC . Reported GI50?
Ans. 74.3 µM (inactive)

Qu. Entry under review: C[N+](C)(CCNc1ccc(NCC[N+](C)(C)Cc2ccc([N+](=O)[O-])cc2)c2c1C(=O)c1c(O)ccc(O)c1C2=O)Cc1ccc([N+](=O)[O-])cc1 . Reported GI50?
Ans. > 50 µM (inactive)

Qu. Entry under review: C=C(Br)COc1ccc2c(C)cc(=O)oc2c1 . Reported GI50?
Ans. > 100 µM (inactive)

Qu. Entry under review: CS/C(=N/S(=O)(=O)c1ccc(Cl)cc1)NCCCN/C(=N\S(=O)(=O)c1ccc(Cl)cc1)SC . Reported GI50?
Ans. 5.08 µM (inactive)

Qu. Entry under review: Nc1ccc(Cc2ccc(/N=C\c3ccc(OCc4cccc(COc5ccc(/C=N\c6ccc(Cc7ccc(N)cc7)cc6)cc5)n4)cc3)cc2)cc1 . Reported GI50?
Ans. > 100 µM (inactive)
